experimentalDetails: In vivo kinetics experiment (radioactivity distribution)
Parameters: species or system Wistar male rat
conditions: rat, caudal vein, 30 min after administration
observable: Adrenal gland/fat ratio of radioactivity accumulation
Give a plain numeric answer without units written out.

[[record]]
compound = "FCCn1c(-c2cncc(Cn3ccnc3)c2)nc2cc(F)c([123I])cc21 [[^123I] 400]"
assayvalue = 147.73

[[record]]
compound = "[123I]c1ccc2nc(-c3cncc(Cn4ccnc4)c3)n(C3CC3)c2c1 [[^123I] 602]"
assayvalue = 147.73

[[record]]
compound = "Fc1cc2nc(-c3cncc(Cn4ccnc4)c3)n(CC[18F])c2cc1Cl [[^18F] 100]"
assayvalue = 352.33

[[record]]
compound = "Fc1cc2nc(-c3cncc(Cn4ccnc4)c3)n(CC[18F])c2cc1Br [[^18F] 200]"
assayvalue = 425.84

[[record]]
compound = "Fc1cc2nc(-c3cncc(Cn4ccnc4)c3)n(CCC[18F])c2cc1Cl [[^18F] 500]"
assayvalue = 295.05


Here is another compound to look at.
Req: Look up Adrenal gland/fat ratio of radioactivity accumulation: [123I]c1ccc2nc(-c3cncc(Cn4ccnn4)c3)n(C3CC3)c2c1 [[^123I] 603]
Resp: 106.15
